testedTarget: G12D-mutant human KRAS (amino acid residues 1-188) (Homo sapiens, UniProt P01116, G12D)
Construct: G12D or G12C-mutant human KRAS (amino acid residues 1-188) with FLAG tag; made in house; host or cells: E. coli
measurementProtocol: KRAS Binding Disruption Assay (AlphaScreen; biotinylated KRpep-2d analogue or RAF1-RBD), G12D
particulars: KRAS G12D; geometric mean; read-out: KRAS GMean IC50 (uM) MUTATION: G12D
readoutType: IC50

Worked cases, IC50 given:
Oc1cc(-c2ccc3c(N4[C@@H]5CC[C@H]4CNC5)nc(CCc4ccccn4)nc3c2)c2ccccc2c1 [P-0232]: 0.0001 to 10 µM
OCc1nc(N2C[C@H]3CC[C@@H](C2)N3)c2cc(Cl)c(-c3c(O)cccc3F)c(F)c2n1 [P-0456]: 10 to 100 µM
O=C(NCCN1CCOCC1)N1[C@@H]2CC[C@H]1CN(c1nc(OCC34CCCN3CCC4)nc3cc(-c4cc(O)cc5ccccc45)ccc13)C2 [P-0029]: 0.0001 to 10 µM
CN1CCCC1COc1nc(N2C[C@H]3CC[C@@H](C2)N3C(=O)NC2CN3CCC2CC3)c2ccc(-c3cc(O)cc4ccccc34)c(F)c2n1 (stereo partly shown) [P-0421]: 0.0001 to 10 µM
Fc1ccc2[nH]cc(-c3c(Cl)cc4c(N5C[C@H]6CC[C@@H](C5)N6)nc(OCC56CCCN5CCC6)nc4c3F)c2c1F [P-0765]: 0.0001 to 10 µM
Cc1c(N)cccc1-c1ccc2c(N3[C@@H]4CC[C@H]3CNC4)nc(OC[C@@H]3CCCN3C)nc2c1 [P-0286]: 10 to 100 µM

Let us move to another entry and its IC50.
// IC50 lookup, compound = CN1CC2(C1)CN(c1nc(N3C[C@H]4CC[C@@H](C3)N4)c3ccc(-c4cc(O)cc5ccccc45)c(F)c3n1)C2 [P-0643] , result: 0.0001 to 10 µM

---

testedTarget: G12V-mutant human KRAS (amino acid residues 1-188) (Homo sapiens, UniProt P01116, G12V)
Construct: G12V-mutant human KRAS (amino acid residues 1-188) with FLAG tag was purified from E. coli; made in house; host or cells: E. coli
measurementProtocol: KRAS Binding Competition Assay (AlphaScreen; biotinylated KRpep-2d analogue), G12V
particulars: geometric mean, read-out: KRAS GMean IC50 (uM) MUTATION: G12V
Listed below: IC50 values for each entry.

Reported IC50 ( Cc1cccc(N)c1-c1ccc2c(N3C[C@H]4CC[C@@H](C3)N4)nc(OC[C@@H]3CCCN3C)nc2c1 ) = 10 to 100 µM

---

testedTarget: G12D-mutant human KRAS (amino acid residues 1-188) (Homo sapiens, UniProt P01116, G12D)
Construct: G12D or G12C-mutant human KRAS (amino acid residues 1-188) with FLAG tag; made in house; host or cells: E. coli
measurementProtocol: KRAS Binding Disruption Assay (AlphaScreen; biotinylated KRpep-2d analogue or RAF1-RBD), G12D
particulars: KRAS G12D; geometric mean; read-out: KRAS GMean IC50 (uM) MUTATION: G12D
readoutType: IC50

# annotated cases, reported IC50 shown
CN1CCN(C(=O)CN2C[C@H]3CC[C@@H](C2)N3c2nc(OC[C@@H]3CCCN3C)nc3cc(-c4cc(O)cc5ccccc45)ccc23)CC1: 0.0001 to 10 µM
CN1CCC[C@H]1COc1nc(N2C[C@H]3CC[C@@H](C2)N3)c2cc(F)c(-c3c[nH]c4ccc(Cl)nc34)c(F)c2n1: 0.0001 to 10 µM
Oc1cc(-c2ccc3c(N4C[C@H]5CC[C@@H](C4)N5)nc(OCC4(O)CCCC4)nc3c2F)c2ccccc2c1: 0.0001 to 10 µM
CN1CCC[C@H]1COc1nc(N2C[C@H]3CC[C@@H](C2)N3)c2cc(C#N)c(-c3cc(O)cc4ccccc34)c(F)c2n1: 0.0001 to 10 µM
O=C1c2ccccc2C(=O)N1Cc1nc(N2C[C@H]3CC[C@@H](C2)N3)c2cc(Cl)c(-c3c(O)cccc3F)c(F)c2n1: 10 to 100 µM
O=C(NC1CCCC1)N1[C@@H]2CC[C@H]1CN(c1nc(OCC34CCCN3CCC4)nc3cc(-c4cc(O)cc5ccccc45)ccc13)C2: 0.0001 to 10 µM

Moving on to the next compound.
The value of IC50 measured for the compound CN1CCC[C@H]1COc1nc(N2[C@@H]3CC[C@H]2CN(C(=O)c2ncn[nH]2)C3)c2ccc(-c3cc(O)cc4ccccc34)cc2n1 turned out to be 10 to 100 µM
